self-cleavage overview
B1: Osa-1-4 twister ribozyme (parent)
chain: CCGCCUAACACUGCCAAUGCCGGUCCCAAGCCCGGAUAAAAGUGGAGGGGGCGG

Variants of: B1
Assay: self-cleavage, relative activity (ratio to wild type); higher = more cleavage; co-transcriptional
Hey, just send me the number, nothing else.

Past entries and their recorded results:
Sequence code | Experimental value
CCGCCUAACACUGCCCAUGCCGGUCCCAAGCCCGGAUAAAAGUGCAGGGGGCGG [A16C G45C] | 0.05
CCGCCUAACACUGCCAAUGCCGGUACCAAUCCCGGAUAAAAGUGGAGGGGGCGG [C25A G30U] | 0.02
CCGCCUAACAAUGCCAAUGCCGGUCCCAAGCCCGAAUAAAAGUGGAGGGGGCGG [C11A G35A] | 0.4
CCGCCUAACACUGCCAAAGCGGGUCCCAAGCCCGGAUAAAAGUGGAGGGGGCGG [C21G U18A] | 0.1
CCGCCUAACACUGCGAAUGCCGGUCCCAAGCCCGGAUGAAAGUGGAGGGGGCGG [A38G C15G] | 0.35

Query variant follows.
## Task Annotate the variant CCGCCUAACACUGCCAAUACCGGUCCCAAGCCCGGAUAAAAGUGGAGUGGGCGG [G19A G48U] with its measured self-cleavage.
## Result 0.06
